Molecular target: STAT3 (Homo sapiens, UniProt P40763)
Construct: expressed in transfected cells; host or cells: A549
Sequence (P40763 whole entry): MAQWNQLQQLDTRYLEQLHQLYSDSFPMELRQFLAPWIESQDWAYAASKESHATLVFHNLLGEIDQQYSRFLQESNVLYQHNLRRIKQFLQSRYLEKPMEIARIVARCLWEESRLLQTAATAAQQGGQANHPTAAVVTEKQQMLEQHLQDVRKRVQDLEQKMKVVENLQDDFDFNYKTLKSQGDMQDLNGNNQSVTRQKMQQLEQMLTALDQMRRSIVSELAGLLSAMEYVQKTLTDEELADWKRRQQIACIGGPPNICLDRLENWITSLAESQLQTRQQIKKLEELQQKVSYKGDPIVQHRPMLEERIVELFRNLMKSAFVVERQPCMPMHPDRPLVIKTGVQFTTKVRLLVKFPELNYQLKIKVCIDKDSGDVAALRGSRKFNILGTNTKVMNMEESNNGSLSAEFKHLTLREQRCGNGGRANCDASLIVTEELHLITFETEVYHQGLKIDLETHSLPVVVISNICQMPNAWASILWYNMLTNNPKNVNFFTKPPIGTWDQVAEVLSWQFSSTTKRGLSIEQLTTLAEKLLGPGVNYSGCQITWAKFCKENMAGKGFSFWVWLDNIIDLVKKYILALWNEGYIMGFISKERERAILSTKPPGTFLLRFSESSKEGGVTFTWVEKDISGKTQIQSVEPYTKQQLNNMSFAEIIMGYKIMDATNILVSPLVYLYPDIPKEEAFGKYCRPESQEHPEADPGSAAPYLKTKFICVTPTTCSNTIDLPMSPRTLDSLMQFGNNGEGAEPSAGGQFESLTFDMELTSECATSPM
Assay: STAT3 HiBiT degradation assay (Nano-Glo HiBiT lytic detection) in transfected A549 cells
Assay type: cell-based
Conditions: 24 h compound incubation, read-out: STAT3 HiBIT A549 degradation 24 h: Average external-Abs DC50
outcome.measure: DC50

compound="Cn1c(=O)n(C2CCC(=O)NC2=O)c2ccc(C[C@H]3CC[C@@H](CCN4CC[C@H]5CC[C@@H](C(=O)N[C@@H](CCC(N)=O)C(=O)NCc6ccc(S(C)(=O)=O)cc6)N5C(=O)[C@@H](NC(=O)c5cc6cc(C(=O)P(=O)(O)O)ccc6[nH]5)C4)CC3)cc21 (some centres unmarked) [I-52]" result="100 to 1000 nM"
compound="Cc1ncsc1-c1ccc([C@H](C)NC(=O)[C@@H]2C[C@@H](O)CN2C(=O)[C@@H](NC(=O)CCCc2cccc(OC[C@H](CCC(N)=O)NC(=O)[C@@H]3CC[C@@H]4CCN(C(=O)C(C)C)C[C@H](NC(=O)c5cc6cc(C(=O)P(=O)(O)O)ccc6[nH]5)C(=O)N43)c2Cl)C(C)(C)C)cc1 [I-54]" result="< 10 nM"
compound="Cn1c(=O)n(C2CCC(=O)NC2=O)c2ccc(C[C@H]3CC[C@@H](CC(=O)N4CC[C@H]5CC[C@@H](C(=O)NC6(CCC(N)=O)CCCC6)N5C(=O)[C@@H](NC(=O)c5cc6cc(C(=O)P(=O)(O)O)ccc6[nH]5)C4)CC3)cc21 (some centres unmarked) [I-29]" result="> 1000 nM"
compound="Cc1ncsc1-c1ccc([C@H](C)NC(=O)[C@@H]2C[C@@H](O)CN2C(=O)[C@@H](NC(=O)CCCc2cccc(OC[C@H](CCC(N)=O)NC(=O)[C@@H]3CC[C@@H]4CCCC[C@H](NC(=O)c5cc6cc(C(=O)P(=O)(O)O)ccc6[nH]5)C(=O)N43)c2Cl)C(C)(C)C)cc1 [I-2]" result="< 10 nM"

Quick batch: DC50 for everything below.
1. Cc1ncsc1-c1ccc([C@H](C)NC(=O)[C@@H]2C[C@@H](O)CN2C(=O)[C@@H](NC(=O)CCCc2cccc(OC[C@H](CCC(N)=O)NC(=O)[C@@H]3CCCN3C(=O)[C@H](Cc3c[nH]cn3)NC(=O)c3cc4cc(C(=O)P(=O)(O)O)ccc4[nH]3)c2Cl)C(C)(C)C)cc1 [I-61]
2. Cn1c(=O)n(C2CCC(=O)NC2=O)c2ccc(C[C@H]3CC[C@@H](CC(=O)N4CC[C@H]5CC[C@@H](C(=O)NC(C)(C)CCC(N)=O)N5C(=O)[C@@H](NC(=O)c5cc6cc(C(=O)P(=O)(O)O)ccc6[nH]5)C4)CC3)cc21 (some centres unmarked) [I-26]
3. Cn1c(=O)n(C2CCC(=O)NC2=O)c2ccc(C[C@H]3CC[C@@H](CC(=O)N4CC[C@H]5CC[C@@H](C(=O)N[C@@H](CCC(N)=O)C(=O)NC6(c7ccc(S(C)(=O)=O)cc7)CC6)N5C(=O)[C@@H](NC(=O)c5cc6cc(C(=O)P(=O)(O)O)ccc6[nH]5)C4)CC3)cc21 (some centres unmarked) [I-38]
4. Cc1ncsc1-c1ccc([C@H](C)NC(=O)[C@@H]2C[C@@H](O)CN2C(=O)[C@@H](NC(=O)CCCc2cccc(OC[C@H](CCC(N)=O)NC(=O)[C@@H]3CCCN3C(=O)[C@@H](NC(=O)c3cc4cc(C(=O)P(=O)(O)O)ccc4[nH]3)C(C)(C)C)c2Cl)C(C)(C)C)cc1 [I-14]

Result:
1. 10 to 100 nM
2. > 1000 nM
3. 100 to 1000 nM
4. 100 to 1000 nM
